# protocol_description: In-vivo pharmacokinetic evaluation (exposure, AUC fold-over Example 1)
# experimental_parameters: male CD-1 mice, 10 mg/kg oral gavage in 20% (2-Hydroxypropyl)-β-cyclodextrin, plasma at 0.5, 2 and 6 hours post-dose; AUC expressed as fold-over Example 1
readout_type: AUC Fold over Ex. 1
Answers are plain numbers.

Exam item: Query: AUC Fold over Ex. 1; subject: `CC#Cc1cccc(Oc2[nH]nnc2C(=O)O)c1`
Marked response: 0.8

# map each compound to its AUC Fold over Ex. 1
1. Cn1cc(C#Cc2cccc(Oc3[nH]nnc3C(=O)O)c2)cn1
2. COc1ccc(C#Cc2ccc(Oc3[nH]nnc3C(=O)O)cc2)cn1
3. O=C(O)c1nn[nH]c1Oc1cccc(C#CCC2CC2)c1

Marked response:
1. 0.1
2. 0.5
3. 4.1

# map each compound to its AUC Fold over Ex. 1
1. O=C(O)c1nn[nH]c1Oc1cccc(C#Cc2cccnc2)c1
2. C#Cc1cccc(Oc2[nH]nnc2C(=O)O)c1
3. COc1ccc(C#Cc2cccc(Oc3[nH]nnc3C(=O)O)c2)cn1
4. CC(C)(C)C#Cc1ccc(Oc2[nH]nnc2C(=O)O)cc1
5. O=C(O)c1nn[nH]c1Oc1cccc(C#CC2CCCC2)c1
6. O=C(O)c1nn[nH]c1Sc1cccc(C#CCC2CC2)c1
7. O=C(O)c1nn[nH]c1Oc1ccc(C#CCC(F)(F)F)cc1

Marked response:
1: 0.2; 2: 1.0; 3: 0.2; 4: 0.2; 5: 2.5; 6: 7.4; 7: 0.3

# map each compound to its AUC Fold over Ex. 1
1. O=C(O)c1nn[nH]c1Oc1cccc(C#Cc2ccccc2)c1
2. O=C(O)c1nn[nH]c1Oc1cccc(C#CC2CCOCC2)c1

Marked response:
1. 1.1
2. 0.1

* * *

# measured_target: recombinant full-length human hydroxyacid oxidase 1 (HAO1), the equivalents of hGOX (Homo sapiens (Human), UniProt Q9UJM8)
# Sequence (Q9UJM8 whole entry): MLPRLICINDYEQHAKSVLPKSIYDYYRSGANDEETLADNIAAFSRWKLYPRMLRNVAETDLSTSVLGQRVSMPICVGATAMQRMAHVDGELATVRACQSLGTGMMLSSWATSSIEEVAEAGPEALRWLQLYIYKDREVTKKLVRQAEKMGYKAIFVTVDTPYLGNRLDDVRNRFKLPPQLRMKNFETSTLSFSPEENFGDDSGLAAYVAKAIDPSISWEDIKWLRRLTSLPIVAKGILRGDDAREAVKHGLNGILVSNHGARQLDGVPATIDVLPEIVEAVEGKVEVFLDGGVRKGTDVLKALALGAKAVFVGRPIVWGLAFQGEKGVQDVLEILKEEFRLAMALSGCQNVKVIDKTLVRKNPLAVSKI
# protocol_description: In-vitro human glycolate oxidase (hGOX) assay (Amplex red fluorescence)
# Type: biochemical
# experimental_parameters: 6 nM recombinant human GO, 85 μM glycolate, 10 min preincubation
readout_type: IC50 (nM)
Answers are plain numbers, in nM.

// worked examples, IC50 included
Exam item: Query: IC50; subject: O=C(O)c1nn[nH]c1Oc1cc(C#Cc2ccccc2)ccc1F [Example 261]
Marked response: 4

Exam item: Ok, now O=C(O)c1nn[nH]c1Oc1cccc(C#CCC2CCCC2)c1 [Example 344]
Marked response: 4

Exam item: Ok, now CS(=O)(=O)c1cccc(C#Cc2ccc(Oc3[nH]nnc3C(=O)O)cc2)c1 [Example 254]
Marked response: 3

Exam item: Ok, now O=C(O)c1nn[nH]c1Oc1ccc(C#Cc2ccccc2)cc1F [Example 260]
Marked response: 5

Exam item: Ok, now O=C(O)c1nn[nH]c1Oc1ccc(F)c(C#Cc2ccccc2)c1 [Example 259]
Marked response: 1

Exam item: Ok, now Cn1cc(C#Cc2cccc(Oc3[nH]nnc3C(=O)O)c2)cn1 [Example 221]
Marked response: 1

// below: IC50 requested for another molecule
Exam item: Query: IC50; subject: Cn1ccc(C#Cc2cccc(Oc3[nH]nnc3C(=O)O)c2)cc1=O [Example 257]
Marked response: 1

* * *

# measured_target: recombinant full-length human hydroxyacid oxidase 1 (HAO1), the equivalents of hGOX (Homo sapiens (Human), UniProt Q9UJM8)
# protocol_description: In-vitro human glycolate oxidase (hGOX) assay (Amplex red fluorescence)
# experimental_parameters: 6 nM recombinant human GO, 85 μM glycolate, 10 min preincubation
# Protocol: The in-vitro glycolate oxidase assay was performed using recombinant full-length human hydroxyacid oxidase 1 (HAO1), the equivalents of hGOX. […] Purified HAO1 was dissolved in assay buffer consisting of 10 mM NaCl, 110 mM KCl, 2 mM MgCl2, 50 mM HEPES (pH 7.4), and 0.01% Triton™ X-100. […] The fluorescence intensity signal was measured on a VariosKan LUX instrument using an excitation of 560 nm and an emission of 590 nm. The IC50 values were calculated using Graphpad Prism. […]
Kindly state IC50 for each of the entries shown.
Give bare numbers, in nM.

Exam item: Query: IC50; subject: O=C(O)c1nn[nH]c1Oc1ccc(C#Cc2ccccc2)c(F)c1 [Example 146]
Marked response: 1

Exam item: Ok, now CC(C)(O)C#Cc1cccc(Oc2[nH]nnc2C(=O)O)c1 [Example 215]
Marked response: 48

Exam item: Ok, now O=C(O)c1nn[nH]c1Oc1ccc(C#Cc2ncccn2)cc1 [Example 336]
Marked response: 25

Exam item: Ok, now O=C(O)c1nn[nH]c1Oc1cccc(C#Cc2ccncc2)c1 [Example 313]
Marked response: 3

// below: IC50 requested for another compound
Exam item: Query: IC50; subject: O=C(O)c1nn[nH]c1Oc1cccc(C#CCc2ccc(F)cc2)c1 [Example 354]
Marked response: 5

* * *

Kindly state pIC50 for each of the entries shown.
# measured_target: recombinant full-length human hydroxyacid oxidase 1 (HAO1), the equivalents of hGOX (Homo sapiens (Human))
# protocol_description: In-vitro human glycolate oxidase (hGOX) assay (Amplex red fluorescence)
# experimental_parameters: 6 nM recombinant human GO, 85 μM glycolate, 10 min preincubation
Numbers only, as −log10 of the molar value.

// worked examples, pIC50 included
Exam item: Query: pIC50; subject: O=C(O)c1nn[nH]c1Oc1ccc(C#CC2CC2)cc1 [Example 20]
Marked response: 7.96

Exam item: Ok, now COc1cc(C#Cc2cccc(Oc3[nH]nnc3C(=O)O)c2)ccn1 [Example 285]
Marked response: 8.52

Exam item: Ok, now O=C1CCC(C#Cc2cccc(Oc3[nH]nnc3C(=O)O)c2)CC1 [Example 352]
Marked response: 7.47

Exam item: Ok, now Cn1ncc2cccc(C#Cc3cccc(Oc4[nH]nnc4C(=O)O)c3)c21 [Example 326]
Marked response: 8.70

# map each compound to its pIC50
1. O=C(O)c1nn[nH]c1Oc1cccc(C#CCC2CCC2)c1 [Example 345]
2. O=C(O)c1nn[nH]c1Oc1ccc(C#Cc2cccc3[nH]ncc23)cc1 [Example 327]
3. C#Cc1cccc(Oc2[nH]nnc2C(=O)O)c1 [Example 1]
4. O=C(O)c1nn[nH]c1Oc1cccc(C#Cc2cccc3[nH]ncc23)c1 [Example 328]

Marked response:
1. 8.10
2. 8.70
3. 7.68
4. 9.00
